kon values by entry
biological target: T1, recombinant human coagulation factor IXa (human, UniProt P00740 134-191; P00740 227-461); assay: BLI
T1 construct: range 134-191;range 227-461; Fluorescently labelled with Dylight-647 for the NANEX runs; also called FIXa
T1 sequence (P00740 134-191 limits assumed, form in doubt, chain 1 of 2): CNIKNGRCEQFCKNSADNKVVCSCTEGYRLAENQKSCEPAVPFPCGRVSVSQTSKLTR
T1 sequence (P00740 227-461 limits assumed, form in doubt, chain 2 of 2): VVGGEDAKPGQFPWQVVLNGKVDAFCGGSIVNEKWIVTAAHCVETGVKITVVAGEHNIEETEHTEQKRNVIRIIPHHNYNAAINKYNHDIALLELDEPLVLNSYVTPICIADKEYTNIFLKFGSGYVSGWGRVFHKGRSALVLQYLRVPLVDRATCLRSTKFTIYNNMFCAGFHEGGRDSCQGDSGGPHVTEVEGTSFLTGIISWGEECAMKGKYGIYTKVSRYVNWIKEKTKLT
In your response, the unit should come after the numeric value.

Study these solved cases before continuing.
binder: CA10304 FIXa-specific Nb (C-term. 6xHis+EPEA) (VHH, also called stripper1) VHH: QVQLVESGGGLVQAGGSLKLSCAASERTFSGTVMGWFRQPPGKEREFVGDISWSGSITDYADSVKGRFTISRDNAKNTMYLQMDSLKPEDTAVYYCAARVGGYSYIMSRSPADFGSWGQGTQVTVSS
kon: 88000 M⁻¹ s⁻¹
//
binder: CA10309 FIXa-specific Nb (Stripper2; C-term. 6xHis+EPEA) (VHH) VHH: QVQLVESGGGLVQAGGSLRLSCATSGIGFSIYSMGWYRQAPGKERELVASIAGNEDKDYVESVKGRFTISRDYAKNTLYLEMSGLKFEDTAMYYCAAGLRRGVSLTPYYWGQGTQVTVSS
kon: 62000 M⁻¹ s⁻¹

Data request: Looking for the measured kon of CA11138 FIXa-specific Nb (C-term. 6xHis+EPEA) (VHH, also called trapper1) VHH: QVQLVESGGGLVQAGGSLRLSCAASERTASNYVMGWFRQAPGKEREFVAFISRTGGSTYYADSVKGRFTVSRDGAKNTVYLQMNTMKPEDTAVYYCAASLYIRNYYEGTNYAYWGQGTQVTVSS , can you help?
Data returned: 34000 M⁻¹ s⁻¹

Data request: Looking for the measured kon of CA10502 FIXa-specific Nb (Trapper2; C-term. 6xHis+EPEA) (VHH) VHH: QVQLQESGGGLVQAGGSLRLSCAASGRTSRVYGVGWFRQAPGKERELVASISTSGSVTNVADSVKGRFTISRDNAKTTVYLQMNSLKPEDTALYYCAADPHGRPYGWGQGTQVTVSS , can you help?
Data returned: 70000 M⁻¹ s⁻¹
